- Test system: 817829-284-R-J1-PDC complex spheroid viability;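 note: spheroids exposed to compounds for 7 days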
- Test description: Anticancer human tumor 817829-284-R-J1-PDC patient-derived colon adenocarcinoma cell line growth inhibition [POLQ]
- Protocol conditions: curve of first compound; second compound 0.316 µM
Measured attribute: IC50 (µM)
Answers are plain numbers, in µM.

CC[C@@]1(O)C(=O)OCc2c1cc1n(c2=O)Cc2cc3c(CN(C)C)c(O)ccc3nc2-1 + COC1C(OC(N)=O)C(O)C(Oc2ccc3c(O)c(NC(=O)c4ccc(O)c(CC=C(C)C)c4)c(=O)oc3c2C)OC1(C)C: 0.00558
O=c1[nH]cc(F)c(=O)[nH]1 + Nc1ccc(C#CCN(C(=O)Cc2ncc(C(F)(F)F)cc2C(F)(F)F)c2ccc(F)cc2)nn1: 1.71
CCc1cc2c(N3CCc4c(cc(Cn5ccnc5)cc4-c4cn(C)nc4C(F)(F)F)C3=O)cc(C)nc2c(OC)n1 + Cc1cccc(N(C)C(=O)C2C(O)CCN2c2nc(C)cc(C(F)(F)F)c2C#N)c1: 1.18

Okay, next one:
Fill in: IC50 of CC[C@@]1(O)C(=O)OCc2c1cc1n(c2=O)Cc2cc3c(CN(C)C)c(O)ccc3nc2-1 + Nc1ccc(C#CCN(C(=O)Cc2ncc(C(F)(F)F)cc2C(F)(F)F)c2ccc(F)cc2)nn1 is ___
0.011

Ref: PubChem BioAssay AID1963839
